Listed next: entries and their corresponding GI50.
- Tested on: UACC-257
- Assay name: NCI tumour cell line growth inhibition, 48 h
Activity calls are given as the source filed them. Cut-off read from the data, not from the text of the source: active = GI50 up to about 1.1 µM and inactive = higher.

The examples below pair each entry with its known result.
[
  {
    "Compound": "O=C1Nc2ccccc2C(=O)O/C(Cc2ccccc2)=N\\c2ccccc21",
    "Result": "54.6 µM (inactive)"
  },
  {
    "Compound": "CC(=O)N1C(OCc2ccccc2)CCN1c1ccccc1 (stereo unspecified)",
    "Result": "> 10 µM (inactive)"
  },
  {
    "Compound": "N#CC(C#N)=Cn1c(=S)[nH]c2ccc([N+](=O)[O-])cc21",
    "Result": "> 100 µM (inactive)"
  },
  {
    "Compound": "NC(=O)c1cccc(OCC(O)CO)c1 (stereo unspecified)",
    "Result": "> 100 µM (inactive)"
  },
  {
    "Compound": "O=C1CSC(=S)N1/N=C/c1ccc(Cl)c([N+](=O)[O-])c1",
    "Result": "23.8 µM (inactive)"
  }
]

Query: Given the entry CC(=O)c1c2c(cc3c1CC1(C3)Cc3ccc4c(c3C1=O)CCC4)CCC2 (stereo unspecified) , report its measured GI50.
Result: 2.75 µM (inactive)

Query: Given the entry O=C1Nc2ccccc2N/C1=C\C(=O)C(F)F , report its measured GI50.
Result: > 100 µM (inactive)
